- Tested target: SHP2-C SH2;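 also: peptide library displayed on the E. coli surface as eCPX fusions, selected cells deep-sequenced, score is each peptide's frequency after selection divided by its frequency in the input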
- Assay: SH2 binding enrichment of the phosphorylated peptide, bacterial display (enrichment ratio); higher = better substrate or ligand; peptides without Tyr show the background
Result type: SH2 binding enrichment
Numbers only.

PKAWNYELPAT [PROM1_Y34]	0.631

Okay, here is my list. What is SH2 binding enrichment for each of these?
1. ALTRSYIREKV [CYP2C8_Y243]
2. CTTIHYNFLCN [TP53_Y234_M237L_YF]
3. DTKDDYNALSV [IL17RB_Y457]
4. GRPLSYWLTGC [LYZL6_Y140_F139S]

Found:
[0.576, 2.12, 0.668, 0.681]

Okay, here is my list. What is SH2 binding enrichment for each of these?
1. LTTEAYEWEPR [ELMOD3_Y61]
2. IVRSLYEDLED [VHL_Y185]

Found:
[0.64, 1.03]
